biological target: mu opioid receptor (Homo sapiens); assay: Beta-arrestin recruitment assay (DiscoveRx PathHunter); format: cell-based; set-up: host or cells: U2OS cells; conditions: U20S cells expressing pro-linked tagged mu-opioid receptor and EA-tagged beta-arrestin; read-out: β-Arrestin EC50
Sequence (P35372 whole entry, species assumed): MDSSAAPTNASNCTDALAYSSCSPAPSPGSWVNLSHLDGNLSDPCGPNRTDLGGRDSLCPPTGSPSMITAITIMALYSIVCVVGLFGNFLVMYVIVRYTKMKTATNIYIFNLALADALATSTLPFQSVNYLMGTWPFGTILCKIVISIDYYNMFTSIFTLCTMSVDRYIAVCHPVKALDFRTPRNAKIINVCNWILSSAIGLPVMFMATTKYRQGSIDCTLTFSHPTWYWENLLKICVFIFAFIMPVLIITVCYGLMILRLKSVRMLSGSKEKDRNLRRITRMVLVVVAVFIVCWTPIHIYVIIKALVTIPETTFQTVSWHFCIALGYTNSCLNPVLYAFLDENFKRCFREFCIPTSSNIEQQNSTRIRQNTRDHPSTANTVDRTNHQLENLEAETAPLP
Sequence (P32121 whole entry partner, species assumed): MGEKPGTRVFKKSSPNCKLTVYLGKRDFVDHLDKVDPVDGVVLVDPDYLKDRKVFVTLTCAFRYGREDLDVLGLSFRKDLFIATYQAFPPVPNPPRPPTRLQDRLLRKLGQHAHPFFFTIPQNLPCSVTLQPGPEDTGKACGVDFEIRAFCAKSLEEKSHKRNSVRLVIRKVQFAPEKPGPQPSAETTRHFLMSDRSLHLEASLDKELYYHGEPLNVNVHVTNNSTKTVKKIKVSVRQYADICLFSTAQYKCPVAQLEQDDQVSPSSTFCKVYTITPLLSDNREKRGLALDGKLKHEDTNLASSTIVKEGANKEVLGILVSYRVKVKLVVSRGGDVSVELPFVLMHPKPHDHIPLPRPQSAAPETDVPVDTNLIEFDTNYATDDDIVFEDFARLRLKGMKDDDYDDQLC
Listed compounds paired with reported EC50
Just the number in nM, nothing appended.

Below, each entry is followed by its recorded EC50 result.
{"compound": "Cc1cc(O)cc(C)c1C[C@H](NC(=N)N)C(=O)N[C@H](C)C(=O)NCC(CNC(=N)N)Cc1ccccc1 (mixture of isomers)", "quantitative-readout": 34.8}
{"compound": "Cc1cc(O)cc(C)c1C[C@H](NC(=N)N)C(=O)N[C@H](C)C(=O)NC[C@@H](N)Cc1ccccc1", "quantitative-readout": 55.2}
{"compound": "Cc1cc(O)cc(C)c1C[C@H](NC(=N)N)C(=O)N[C@H](CC[S+](C)[O-])C(=O)NC[C@H](Cc1ccccc1)NC(=N)N (some centres unmarked)", "quantitative-readout": 17.6}
{"compound": "Cc1cc(O)cc(C)c1C[C@H](NC(=N)N)C(=O)N[C@H](C)C(=O)NC[C@H](Cc1ccccc1)NC(=O)CNC(=N)N", "quantitative-readout": 47.6}

Recorded result, Cc1cc(O)cc(C)c1C[C@H](NC(=N)N)C(=O)N[C@H](C)C(=O)NC[C@H](Cc1ccccc1)NC(=N)N , EC50: 41.4

====

Recorded measurements of pEC50, one per entry
Target: mu opioid receptor (Homo sapiens)
Assay: Beta-arrestin recruitment assay (DiscoveRx PathHunter)
Type: cell-based
Parameters: host or cells: U2OS cells
Description: The ability of agonists to cause recruitment of beta-arrestin to the mu opioid receptor was measured using DiscoveRx PathHunter technology. […]
In plain terms, pEC50 is the concentration in mol/L turned into minus its base-10 logarithm.

Take a look at these entries with their results.
{"molecule": "Cc1cc(O)cc(C)c1C[C@H](NC(=N)N)C(=O)N[C@H](CCCCCC(=O)O)C(=O)NCCCc1ccccc1 [Example 7]", "tested-on": "mu opioid receptor (Homo sapiens)", "pEC50": 5.61}
{"molecule": "Cc1cc(O)cc(C)c1C[C@H](N=C(N(C)C)N(C)C)C(=O)N[C@H](C)C(=O)NC[C@H](Cc1ccccc1)NC(=N)N [Example 3]", "tested-on": "mu opioid receptor (Homo sapiens)", "pEC50": 5.00}
{"molecule": "C[C@@H](NC(=O)[C@H](Cc1ccc(O)cc1)NC(=N)N)C(=O)NC[C@H](Cc1ccccc1)NC(=N)N [Example 4]", "tested-on": "mu opioid receptor (Homo sapiens)", "pEC50": 5.29}

Briefly, pEC50 measured for Cc1cc(O)cc(C)c1C[C@H](NC(=N)N)C(=O)N[C@H](C)C(=O)NC[C@H](Cc1ccccc1)NC(=O)CCNC(=N)N [Example 6] : 6.79

====

assay: physchem; conditions: octanol / 0.1 M phosphate buffer, pH 7.4
measurement-name: logD
Note: the reply should be a number with no unit written.

The reported value for Cc1cc(O)cc(C)c1C[C@H](NC(=N)N)C(=O)N[C@H](C)C(=O)NCCCc1ccccc1 in terms of logD is -0.1

====

Parameter logD: see the listing below.
test: physchem; details: pH 7.4

Example entries and their recorded answers appear below.
{"compound": "CC(=O)N[C@H](CNC(=O)[C@@H](C)NC(=O)[C@H](Cc1c(C)cc(O)cc1C)NC(=N)N)Cc1ccccc1", "logD": -0.35}
{"compound": "C[C@@H](NC(=O)[C@H](Cc1ccc(O)cc1)NC(=N)N)C(=O)NC[C@H](Cc1ccccc1)NC(=N)N", "logD": -0.3}
{"compound": "Cc1cc(O)cc(C)c1C[C@H](NC(=N)N)C(=O)N[C@H](C)C(=O)NC[C@H](Cc1ccccc1)NC(=N)N", "logD": -0.2}
{"compound": "Cc1cc(O)cc(C)c1C[C@H](NC(=N)N)C(=O)N[C@H](C)C(=O)NCC(CNC(=N)N)Cc1ccccc1 (mixture of isomers)", "logD": -0.7}

Value of logD reported for the compound Cc1cc(O)cc(C)c1C[C@H](NC(=N)N)C(=O)N[C@H](CCCCCC(=O)O)C(=O)NCCCc1ccccc1 is 0.8

====

Reported microsomal CLint at 1 μM is given for each of the following molecules.
test: Rat liver microsomal stability assay (RLM); type: in vitro ADME; conditions: pH 7.4; rat liver microsomes, 1 μM substrate, 37° C., 1 h time course; read-out: RLMclearance
Express the result in µL/min/mg but write the number alone.

Use these answered entries as a reference point.
{"molecule": "C[C@@H](NC(=O)[C@H](Cc1ccc(O)cc1)NC(=N)N)C(=O)NC[C@H](Cc1ccccc1)NC(=N)N", "microsomal CLint at 1 μM / µL/min/mg": 13.4}
{"molecule": "Cc1cc(O)cc(C)c1C[C@H](NC(=N)N)C(=O)N[C@H](CCCCCC(=O)O)C(=O)NCCCc1ccccc1", "microsomal CLint at 1 μM / µL/min/mg": 9.48}
{"molecule": "Cc1cc(O)cc(C)c1C[C@H](NC(=N)N)C(=O)N[C@H](C)C(=O)NC[C@H](Cc1ccccc1)NC(=N)N", "microsomal CLint at 1 μM / µL/min/mg": 8.5}

Kindly note the recorded microsomal CLint at 1 μM for Cc1cc(O)cc(C)c1C[C@H](NC(=N)N)C(=O)N[C@H](C)C(=O)NC[C@H](Cc1ccccc1)NC(=O)CCNC(=N)N , which is 8.5

Record CC(=O)N[C@H](CNC(=O)[C@@H](C)NC(=O)[C@H](Cc1c(C)cc(O)cc1C)NC(=N)N)Cc1ccccc1 . Reported microsomal CLint at 1 μM: 12.1

The value of microsomal CLint at 1 μM measured for the molecule Cc1cc(O)cc(C)c1C[C@H](NC(=N)N)C(=O)N[C@H](C)C(=O)NC[C@@H](N)Cc1ccccc1 turned out to be 12.9

Sample Cc1cc(O)cc(C)c1C[C@H](NC(=N)N)C(=O)N[C@H](C)C(=O)NCC(CNC(=N)N)Cc1ccccc1 (mixture of isomers) ; microsomal CLint at 1 μM observed: 8.5

====

molecular target: mu opioid receptor (Homo sapiens); assay: Inhibition of forskolin stimulated cAMP production (alphascreen); type: cell-based; set-up: expressed in transfected cells; host or cells: CHO cells; conditions: CHO cells recombinantly expressing the mu opioid receptor, 50 uM forskolin; read-out: mu-opioid IC50
Sequence (P35372 whole entry, species assumed): as the sequence (P35372 whole entry, species assumed) above
measurement-name: IC50 (nM)
Response body: numeric value in nM, unit text excluded.

Some entries whose results are on file:
{"smi": "Cc1cc(O)cc(C)c1C[C@H](NC(=N)N)C(=O)N[C@H](C)C(=O)NC[C@@H](N)Cc1ccccc1", "IC50 / nM": 15.3}
{"smi": "CC(=O)N[C@H](CNC(=O)[C@@H](C)NC(=O)[C@H](Cc1c(C)cc(O)cc1C)NC(=N)N)Cc1ccccc1", "IC50 / nM": 26.6}

Okay, now this molecule:
Sure, the documented IC50 for Cc1cc(O)cc(C)c1C[C@H](NC(=N)N)C(=O)N[C@H](C)C(=O)NC[C@H](Cc1ccccc1)NC(=N)N is 26

====

Form field: microsomal CLint at 1 μM (one value per entry).
assay: Human liver microsomal stability assay (HLM); format: in vitro ADME; settings: pH 7.4; human liver microsomes, 1 μM substrate, 37° C., 1 h time course; read-out: HLM clearance
Give the value, in units of µL/min/mg, as a plain number.

Solved cases (5 shown):
{"compound": "Cc1cc(O)cc(C)c1C[C@H](NC(=N)N)C(=O)N[C@H](C)C(=O)NCC(CNC(=N)N)Cc1ccccc1 (mixture of isomers)", "microsomal CLint at 1 μM (µL/min/mg)": 15.9}
{"compound": "Cc1cc(O)cc(C)c1C[C@H](NC(=N)N)C(=O)N[C@H](C)C(=O)NC[C@@H](N)Cc1ccccc1", "microsomal CLint at 1 μM (µL/min/mg)": 13.6}
{"compound": "Cc1cc(O)cc(C)c1C[C@H](NC(=N)N)C(=O)N[C@H](C)C(=O)NC[C@H](Cc1ccccc1)NC(=O)CCNC(=N)N", "microsomal CLint at 1 μM (µL/min/mg)": 8}
{"compound": "C[C@@H](NC(=O)[C@H](Cc1ccc(O)cc1)NC(=N)N)C(=O)NC[C@H](Cc1ccccc1)NC(=N)N", "microsomal CLint at 1 μM (µL/min/mg)": 9.54}
{"compound": "CC(=O)N[C@H](CNC(=O)[C@@H](C)NC(=O)[C@H](Cc1c(C)cc(O)cc1C)NC(=N)N)Cc1ccccc1", "microsomal CLint at 1 μM (µL/min/mg)": 15.4}

Data point: Cc1cc(O)cc(C)c1C[C@H](NC(=N)N)C(=O)N[C@H](CCCCCC(=O)O)C(=O)NCCCc1ccccc1 ; microsomal CLint at 1 μM = 8.61

The value of microsomal CLint at 1 μM measured for the compound Cc1cc(O)cc(C)c1C[C@H](NC(=N)N)C(=O)N[C@H](C)C(=O)NC[C@H](Cc1ccccc1)NC(=N)N turned out to be 10.6
